system: Citrobacter diversus; assay: MIC against Gram-negative bacteria: Citrobacter diversus; type: cell-based; details: 96-well plate, 5×10^5 CFU/mL, 37° C., 10 h

{"substance": "PRT733 (SSNGCSNNMNACQQICLPVPGGLFSCACATGFKLNPDNRSCS; listed as Homo sapiens)", "MIC C. diversus / µg/mL": 25}
{"substance": "PRT664 (DINECLTLGLCKDAECVNTRGSYLCTCRPGLMLDPSRSRCV; listed as Homo sapiens)", "MIC C. diversus / µg/mL": 12.5}
{"substance": "PRT596 (CDCDPRTSQSSHCDQLTGQCPCKLGYGGKRCSECQENYYGDPPGRCIP; listed as Homo sapiens)", "MIC C. diversus / µg/mL": 50}
{"substance": "PRT718 (MTLCSALNCQYQCHETPYGGACFCPPGYIINHNDSRTCV; listed as Homo sapiens)", "MIC C. diversus / µg/mL": 25}
